Conditions: in 2-butanone, 303.15 K

STRUCTURE STRING	solubility (mole fraction)
Nc1nc(Cl)c2[nH]cnc2n1	0.000408

* * *

Details: in ethanol, 323.15 K

STRUCTURE STRING	solubility (mole fraction)
Nc1nc(Cl)c2[nH]cnc2n1	0.000258

* * *

Conditions: in isobutanol, 323.15 K

STRUCTURE STRING	solubility (mole fraction)
Nc1nc(Cl)c2[nH]cnc2n1	0.000373

* * *

Details: in ethylene glycol, 333.15 K

STRUCTURE STRING	solubility (mole fraction)
Nc1nc(Cl)c2[nH]cnc2n1	0.00198

* * *

Settings: in water, 283.15 K

STRUCTURE STRING	solubility (mole fraction)
Nc1nc(Cl)c2[nH]cnc2n1	4.66e-06

* * *

Conditions: in methanol, 328.15 K

STRUCTURE STRING	solubility (mole fraction)
Nc1nc(Cl)c2[nH]cnc2n1	0.000233

* * *

Settings: in methanol, 308.15 K
MEASUREMENT KIND: solubility (mole fraction)

STRUCTURE STRING	MEASUREMENT KIND	OBSERVED VALUE
Nc1nc(Cl)c2[nH]cnc2n1	solubility (mole fraction)	0.000112

* * *

Conditions: in n-propanol, 328.15 K

STRUCTURE STRING	solubility (mole fraction)
Nc1nc(Cl)c2[nH]cnc2n1	0.000472

* * *

Settings: in 1,4-dioxane, 288.15 K
MEASUREMENT KIND: solubility (mole fraction)

STRUCTURE STRING	MEASUREMENT KIND	OBSERVED VALUE
Nc1nc(Cl)c2[nH]cnc2n1	solubility (mole fraction)	7.48e-05

* * *

Conditions: in water, 313.15 K

STRUCTURE STRING	solubility (mole fraction)
Nc1nc(Cl)c2[nH]cnc2n1	3e-05

* * *

Conditions: in isopropanol, 328.15 K

STRUCTURE STRING	solubility (mole fraction)
Nc1nc(Cl)c2[nH]cnc2n1	0.000363

* * *

Details: in methanol, 288.15 K

STRUCTURE STRING	solubility (mole fraction)
Nc1nc(Cl)c2[nH]cnc2n1	4.94e-05

* * *

Settings: in ethanol, 328.15 K

STRUCTURE STRING	solubility (mole fraction)
Nc1nc(Cl)c2[nH]cnc2n1	0.000303

* * *

Conditions: in 2-butanone, 333.15 K

STRUCTURE STRING	solubility (mole fraction)
Nc1nc(Cl)c2[nH]cnc2n1	0.001

* * *

Settings: in isobutanol, 303.15 K
MEASUREMENT KIND: solubility (mole fraction)

STRUCTURE STRING	OBSERVED VALUE
Nc1nc(Cl)c2[nH]cnc2n1	0.000211

* * *

Details: in ethanol, 333.15 K

STRUCTURE STRING	solubility (mole fraction)
Nc1nc(Cl)c2[nH]cnc2n1	0.000357

* * *

Settings: in n-butanol, 328.15 K
MEASUREMENT KIND: solubility (mole fraction)

STRUCTURE STRING	MEASUREMENT KIND	OBSERVED VALUE
Nc1nc(Cl)c2[nH]cnc2n1	solubility (mole fraction)	0.000515

* * *

Conditions: in 1,4-dioxane, 323.15 K

STRUCTURE STRING	solubility (mole fraction)
Nc1nc(Cl)c2[nH]cnc2n1	0.000277

* * *

Details: in 2-butanone, 293.15 K

STRUCTURE STRING	solubility (mole fraction)
Nc1nc(Cl)c2[nH]cnc2n1	0.000303
